- measured on: IRAK4 (Homo sapiens, UniProt Q9NWZ3)
- Construct: Degradation of IRAK4 in OCI-LY10 was quantitatively measured using Meso Scale Discovery technology; endogenous in cells; host or cells: OCI-LY10
- Sequence (Q9NWZ3 whole entry): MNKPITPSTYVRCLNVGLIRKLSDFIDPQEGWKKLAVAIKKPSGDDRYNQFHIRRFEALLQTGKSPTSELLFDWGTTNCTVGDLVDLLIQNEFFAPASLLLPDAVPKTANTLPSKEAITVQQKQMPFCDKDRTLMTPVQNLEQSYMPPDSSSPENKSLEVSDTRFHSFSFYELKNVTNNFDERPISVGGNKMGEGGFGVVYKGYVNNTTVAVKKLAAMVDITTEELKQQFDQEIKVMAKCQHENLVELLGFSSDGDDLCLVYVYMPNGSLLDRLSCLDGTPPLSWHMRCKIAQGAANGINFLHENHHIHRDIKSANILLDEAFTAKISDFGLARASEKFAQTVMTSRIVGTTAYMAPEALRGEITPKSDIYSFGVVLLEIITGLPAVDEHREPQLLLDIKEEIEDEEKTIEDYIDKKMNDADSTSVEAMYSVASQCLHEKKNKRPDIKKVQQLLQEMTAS
- experimental protocol: IRAK4 MSD Degradation in OCI-LY10
- Assay type: cell-based
- run conditions: OCI-LY10 cells, 24 hrs incubation, MSD; read-out: IRAK4 degradation in OCI-LY10 at 24 hrs: DC50
property: DC50

[[record]]
compound = "Cn1c(=O)n(C2CCC(=O)NC2=O)c2cccc(N3CC(O[C@H]4CCN(C[C@H]5CC[C@H](n6cc(NC(=O)c7cnn8ccc(N9C[C@H]%10C[C@@H]9CO%10)nc78)c(C(F)F)n6)CC5)C[C@H]4F)C3)c21 (some centres unmarked) [I-584]"
property = "DC50"
test_value = "> 200 nM"

[[record]]
compound = "CN(C[C@H]1CC[C@H](n2cc(NC(=O)c3cnn4ccc(N5CCOC6(CCC6)C5)nc34)c(C(F)F)n2)CC1)C1CCN(c2cccc3c2n(C)c(=O)n3C2CCC(=O)NC2=O)CC1(F)F (some centres unmarked)"
property = "DC50"
test_value = "> 200 nM"

[[record]]
compound = "C[C@H]1CN(C[C@H]2CC[C@H](n3cc(NC(=O)c4cnn5ccc(N6C[C@H]7C[C@@H]6CO7)nc45)c(C(F)F)n3)CC2)CCN1CC#Cc1cccc2c1n(C)c(=O)n2C1CCC(=O)NC1=O (some centres unmarked)"
property = "DC50"
test_value = "> 200 nM"

[[record]]
compound = "COc1cc2nn([C@H]3CC[C@H](CN4CCC5(CC4)CCN(c4cccc6c4n(C)c(=O)n6C4CCC(=O)NC4=O)CC5)CC3)cc2cc1NC(=O)c1cncc(F)c1 (some centres unmarked)"
property = "DC50"
test_value = "> 200 nM"

[[record]]
compound = "COc1cc2nn([C@H]3CC[C@H](CN4CCC(c5cccc6c5n(C)c(=O)n6C5CCC(=O)NC5=O)C(F)(F)C4)CC3)cc2cc1NC(=O)c1cccc(C(F)(F)F)n1 (some centres unmarked)"
property = "DC50"
test_value = "> 200 nM"

[[record]]
compound = "Cn1c(=O)n(C2CCC(=O)NC2=O)c2cccc(C#CCN3CCC(C[C@H]4CC[C@H](n5cc(NC(=O)c6cnn7ccc(N8C[C@H]9C[C@@H]8CO9)nc67)c(C(F)F)n5)CC4)CC3)c21 (some centres unmarked)"
property = "DC50"
test_value = "> 200 nM"

[[record]]
compound = "O=C1CCN(c2cncc3c(C4CCN(C[C@H]5CC[C@H](n6cc7cc(NC(=O)c8cccc(C(F)(F)F)n8)ccc7n6)CC5)CC4(F)F)cccc23)C(=O)N1 (some centres unmarked) [I-709]"
property = "DC50"
test_value = "10 to 100 nM"

[[record]]
compound = "CN(C[C@H]1CC[C@H](n2cc3cc(NC(=O)c4cccc(C(F)(F)F)n4)c(C(F)F)cc3n2)CC1)C1CCN(c2cccc3c2n(C)c(=O)n3C2CCC(=O)NC2=O)CC1(F)F (some centres unmarked)"
property = "DC50"
test_value = "> 200 nM"

[[record]]
compound = "Cc1cccc(C(=O)Nc2cc3cn([C@H]4CC[C@H](CN5CCN(c6cccc7c6n(C)c(=O)n7C6CCC(=O)NC6=O)CC5)CC4)nc3cn2)n1 (some centres unmarked)"
property = "DC50"
test_value = "< 10 nM"

[[record]]
compound = "Cn1c(=O)n(C2CCC(=O)NC2=O)c2cccc(C#CCOC3CCN(C[C@H]4CC[C@H](n5cc(NC(=O)c6cnn7ccc(N8CCC9(CCOC9)C8)nc67)c(C(F)F)n5)CC4)CC3)c21 (some centres unmarked)"
property = "DC50"
test_value = "> 200 nM"

[[record]]
compound = "Cn1c(=O)n(C2CCC(=O)NC2=O)c2cccc(C3CCN(C[C@H]4CC[C@H](n5cc6cc(NC(=O)c7cccc(C(F)F)n7)ccc6n5)CC4)CC3(F)F)c21 (some centres unmarked)"
property = "DC50"
test_value = "< 10 nM"

[[record]]
compound = "Cn1c(=O)n(C2CCC(=O)NC2=O)c2cccc(C3CCN(C[C@H]4CC[C@H](n5cc6cc(NC(=O)c7cccc(C(F)(F)F)n7)ncc6n5)CC4)CC3(F)F)c21 (some centres unmarked) [I-488]"
property = "DC50"
test_value = "> 200 nM"

[[record]]
compound = "CN1CCN(c2ccn3ncc(C(=O)Nc4cn([C@H]5CC[C@H](CN6CCC(OCC#Cc7cccc8c7n(C)c(=O)n8C7CCC(=O)NC7=O)CC6)CC5)nc4C(F)F)c3n2)CC1 (some centres unmarked)"
property = "DC50"
test_value = "< 10 nM"

[[record]]
compound = "Cn1c(=O)n(C2CCC(=O)NC2=O)c2cccc(C#CCN3CCN(C[C@H]4CC[C@H](n5cc(NC(=O)c6cnn7ccc(N8CCNCC8)nc67)c(C(F)F)n5)CC4)CC3)c21 (some centres unmarked)"
property = "DC50"
test_value = "< 10 nM"

[[record]]
compound = "Cn1c(=O)n(C2CCC(=O)NC2=O)c2cccc(C3CCN(C4CCN(C5CCC(n6cc(NC(=O)c7cnn8ccc(N9C[C@H]%10C[C@@H]9CO%10)nc78)c(C(F)F)n6)CC5)CC4)CC3)c21 (some centres unmarked)"
property = "DC50"
test_value = "> 200 nM"

[[record]]
compound = "COc1ccc2c(c1C#CCO[C@@H]1CCN(C[C@H]3C[C@H](n4cc(NC(=O)c5cnn6ccc(N7C[C@H]8C[C@@H]7CO8)nc56)c(C(F)F)n4)C3)C[C@@H]1F)n(C)c(=O)n2C1CCC(=O)NC1=O (some centres unmarked)"
property = "DC50"
test_value = "> 200 nM"

[[record]]
compound = "Cn1c(=O)n(C2CCC(=O)NC2=O)c2cccc(C#CCO[C@H]3CCN(C[C@H]4CC[C@H](n5cc(NC(=O)c6cnn7ccc(N8CCS(=O)(=O)CC8)nc67)c(C(F)F)n5)CC4)C[C@@H]3F)c21 (some centres unmarked) [I-714]"
property = "DC50"
test_value = "< 10 nM"

[[record]]
compound = "C[C@@H]1CN(c2ccn3ncc(C(=O)Nc4cn([C@H]5CC[C@H](CN(C)C6CCN(c7cccc8c7n(C)c(=O)n8C7CCC(=O)NC7=O)CC6(F)F)CC5)nc4C(F)F)c3n2)C[C@H](C)O1 (some centres unmarked)"
property = "DC50"
test_value = "> 200 nM"

[[record]]
compound = "COc1cc2nn([C@H]3CC[C@H](CN4CCC5(CC4)CCN(c4cccc6c4n(C)c(=O)n6C4CCC(=O)NC4=O)CC5)CC3)cc2cc1NC(=O)c1cncc(C#N)c1 (some centres unmarked)"
property = "DC50"
test_value = "10 to 100 nM"

[[record]]
compound = "Cn1c(=O)n(C2CCC(=O)NC2=O)c2cccc(C#CCN3CCN(C[C@H]4CC[C@H](n5cc(NC(=O)c6cnn7ccc(N8CCCC(C)(C)C8)nc67)c(C(F)F)n5)CC4)CC3)c21 (some centres unmarked)"
property = "DC50"
test_value = "10 to 100 nM"

